Read-out record for MDA-MB-435: GI50

Lookup: Give the measured GI50 of CC[n+]1c(-c2ccccc2)c2cc(N)ccc2c2ccc(N)cc21 .
Found: 1.11 µM

Lookup: Would you kindly share the measured GI50 for Oc1cn(-c2ccc(Cl)cc2)nc1-c1n[nH]c(=S)n1-c1ccc(F)cc1 ?
Found: 4.93 µM

Lookup: Would you mind telling me what GI50 value was observed for NC1=NC(c2ccccc2Cl)c2c(n[nH]c2N)N1 (centres undefined) ?
Found: 15 µM

Lookup: Entry Cc1ccc2ccc3c4ccccc4ccc3c2c1 : reported GI50 = ?
Found: 18.1 µM

* * *

- Tested on: SK-MEL-2 melanoma
- PROTOCOL_TEXT: NCI tumour cell line growth inhibition, 48 h
Listed here are compounds together with their documented TGI.

Reference set, count: 2
COc1ccc(C2C(=O)c3ccc(OC)cc3OC2c2cccnc2)cc1 (stereo not drawn): > 100 µM
O=C(Nc1ccc(-n2cc(-c3ccncc3)c(-c3ccc(O)c(Cl)c3)n2)cc1)Nc1cc(C(F)(F)F)cc(C(F)(F)F)c1: 4.98 µM

Lookup: Using the record for COc1ccccc1/C=C(\NC(=O)c1ccccc1)c1nc2ccc(Cl)cc2[nH]1 , report its TGI.
Found: 65.7 µM
